# Assay method text: ATG_PXRE_CIS: Attagene CIS-FACTORIAL HepG2 Assay for human Pregnane X Receptor Element (PXRE) (AID 2282957)
# Reported conditions: HepG2 Attagene CIS-FACTORIAL PXRE reporter, mRNA; actives raise or lower the signal
Activity calls are given as the source filed them. How the source made its calls: active means hit-call score of the fitted dose curve at least 0.9, where 1 is the maximum; inactive means score below 0.9.
In this section, each of the compounds is paired with its reported AC50.

These solved cases illustrate the format of a correct answer.
| Compound | Property measured | Result value |
| --- | --- | --- |
| COP(=O)(OC)O/C(C)=C/C(=O)N(C)C | AC50 | 68.5 µM (active) |
| CCSC(=O)N1CCCCCC1 | AC50 | 15.9 µM (active) |
| OC(c1ccc(Cl)cc1)(c1ccc(Cl)cc1)C(Cl)(Cl)Cl | AC50 | 2.86 µM (active) |
| C=C(C)CN(CC)c1c([N+](=O)[O-])cc(C(F)(F)F)cc1[N+](=O)[O-] | AC50 | 9.5 µM (active) |
| CCOc1nc(F)cc2nc(S(=O)(=O)Nc3c(Cl)cccc3Cl)nn12 | AC50 | 10.1 µM (active) |
| CCC(C)n1c(=O)[nH]c(C)c(Br)c1=O (stereo not drawn) | AC50 | 50 µM (active) |
| C=CCOC(=O)C(C)(C)OC(=O)c1cc(-n2c(=O)cc(C(F)(F)F)n(C)c2=O)ccc1Cl | AC50 | 1.49 µM (active) |

Looking up COc1cc(Cl)c(OC)cc1Cl , I see its AC50 listed as 50 µM (active)

====

# Read-out: Monocyte Chemoattractant Protein-1 (MCP1), CCL2 (gene 6347)
# Assay method text: BSK_LPS_MCP1: BioMAP Diversity Plus: LPS Assay for Monocyte Chemoattractant Protein-1 (MCP1) Biomarker Activity (AID 2283081)
# Reported conditions: primary human HUVEC with PBMC; actives raise or lower the signal
Active and inactive are the calls of the source. Rule for the calls: active = hit-call score of the fitted dose curve at least 0.9, where 1 is the maximum; inactive = score below 0.9.
Form entry, call: pick from active, inactive

| Molecule | Class label |
| --- | --- |
| CCOc1nc(F)cc2nc(S(=O)(=O)Nc3c(Cl)cccc3Cl)nn12 | inactive |
| CC(C)Nc1nc(Cl)nc(NC(C)C)n1 | inactive |
| O=c1n(Cl)c(=O)n(Cl)c(=O)n1Cl | inactive |
| CC(C)Oc1cccc(NC(=O)c2ccccc2C(F)(F)F)c1 | inactive |
| COc1ccc(-c2ccccc2)cc1NNC(=O)OC(C)C | inactive |

Would you mind telling me which call this test gave O=C1C2CC=CCC2C(=O)N1SC(Cl)(Cl)Cl (stereo not drawn) ?
inactive

Would you mind telling me which call this test gave COC(=O)c1c(C(F)F)nc(C(F)(F)F)c(C2=NCCS2)c1CC(C)C ?
inactive

Would you mind telling me which call this test gave COP(=S)(OC)SCn1nnc2ccccc2c1=O ?
active

Would you mind telling me which call this test gave Cc1c(COC(=O)[C@@H]2[C@H](/C=C(\Cl)C(F)(F)F)C2(C)C)cccc1-c1ccccc1 ?
inactive

====

# Assay method text: CCTE_Simmons_MITO_max_resp_rate: CCTE's HepG2 Seahorse XF Respirometric Screening Assay at Maximal Respiratory State [uncoupled], Simmons Lab (AID 2284002)
# Reported conditions: actives raise or lower the signal
The source made the active and inactive calls. Rule for the calls: active = hit-call score of the fitted dose curve at least 0.9, where 1 is the maximum; inactive = score below 0.9.
Form entry, call: pick from active, inactive

| Molecule | Class label |
| --- | --- |
| CC(C)(C)C(=O)C(Oc1ccc(Cl)cc1)n1cncn1 (centres undefined) | active |
| CC(C)=CC1C(C(=O)OCc2coc(Cc3ccccc3)c2)C1(C)C (centres undefined) | inactive |
| CCOP(=O)(OCC)Oc1nc(Cl)c(Cl)cc1Cl | active |

Would you mind telling me which call this test gave CC(C)N1C(=O)N(c2ccccc2)CSC1=NC(C)(C)C ?
inactive

Would you mind telling me which call this test gave COCC(=O)N(c1c(C)cccc1C)C(C)C(=O)OC (centres undefined) ?
inactive

Would you mind telling me which call this test gave Cc1ccc(N=CN(C)C=Nc2ccc(C)cc2C)c(C)c1 ?
inactive
